- Tested on: SK-MEL-5 melanoma
- assay.explanation: NCI-60 one-dose screen, 48 h
- test.settings: 10 µM unless noted
Compounds without any hit were thinned out: in the full panel of roughly 83,000, 20% have a hit. The source made the active and inactive calls. Rule for the calls: active = growth percent below 10; inactive = the rest.
Outcome codes: active, inactive

{"smiles.input": "COc1cc(/C=C/c2cc(/C=C/c3ccc(O)c(OC)c3)n(C(=O)Nc3ccc(F)c(Cl)c3)n2)ccc1O", "group": "active"}
{"smiles.input": "CC(C)(C)OC[C@@H]1N=C(c2ccc(Br)cc2)Nc2nc3ccccn3c2C1=O", "group": "inactive"}
{"smiles.input": "NNC(=O)CSc1nc2scc(-c3ccccc3)c2c(=O)n1-c1ccccc1", "group": "inactive"}
{"smiles.input": "O=C(O/C(=C/c1ccccc1)C(F)(F)F)c1ccccc1", "group": "inactive"}
{"smiles.input": "NC(N)=N/N=C/c1ccc(Cl)cc1", "group": "inactive"}
{"smiles.input": "CN1C(=O)C(C(=O)/C=C/c2ccccc2C(=O)O)C(=O)N(C)C1=O", "group": "inactive"}
